test: Inhibition of Clostridium perfringens neuraminidase by fluorescence based assay
metric-name: IC50 (µM)
Give the value in µM but do not write µM after it.

Some solved cases for reference:
molecule="CC1(C)C=Cc2c(ccc([C@@H]3COc4c(ccc5c4C=CC(C)(C)O5)C3)c2O)O1 [HISPAGLABRIDIN B]" units_symbol=µM meas_value=4.23
molecule="CC1(C)C=Cc2c(ccc3c2OCC(O)C3)O1 (stereo unspecified)" units_symbol=µM meas_value=2.88
molecule="CC(C)=CCc1cc([C@@H]2CC(=O)c3ccc(O)c(CC=C(C)C)c3O2)ccc1O [GLABROL]" units_symbol=µM meas_value=2.17
molecule="CC1(C)C=Cc2c(ccc(-c3coc4cc(O)ccc4c3=O)c2O)O1 [GLABRONE]" units_symbol=µM meas_value=11.7

// lookup IC50 for CCOC(=O)C1=C[C@@H](OC(CC)CC)[C@H](NC(C)=O)[C@@H](N)C1 [OSELTAMIVIR] 125

And then COc1ccc(-c2coc3cc(O)ccc3c2=O)cc1 [FORMONONETIN] , what is it? 13.6
